study.target: human full-length recombinant PKC βII (Homo sapiens)
Construct: Active human full-length recombinant PKC βII; purchased Invitrogen GmbH, Darmstadt, Germany
Sequence (P05771 1-673 isoform P05771-2): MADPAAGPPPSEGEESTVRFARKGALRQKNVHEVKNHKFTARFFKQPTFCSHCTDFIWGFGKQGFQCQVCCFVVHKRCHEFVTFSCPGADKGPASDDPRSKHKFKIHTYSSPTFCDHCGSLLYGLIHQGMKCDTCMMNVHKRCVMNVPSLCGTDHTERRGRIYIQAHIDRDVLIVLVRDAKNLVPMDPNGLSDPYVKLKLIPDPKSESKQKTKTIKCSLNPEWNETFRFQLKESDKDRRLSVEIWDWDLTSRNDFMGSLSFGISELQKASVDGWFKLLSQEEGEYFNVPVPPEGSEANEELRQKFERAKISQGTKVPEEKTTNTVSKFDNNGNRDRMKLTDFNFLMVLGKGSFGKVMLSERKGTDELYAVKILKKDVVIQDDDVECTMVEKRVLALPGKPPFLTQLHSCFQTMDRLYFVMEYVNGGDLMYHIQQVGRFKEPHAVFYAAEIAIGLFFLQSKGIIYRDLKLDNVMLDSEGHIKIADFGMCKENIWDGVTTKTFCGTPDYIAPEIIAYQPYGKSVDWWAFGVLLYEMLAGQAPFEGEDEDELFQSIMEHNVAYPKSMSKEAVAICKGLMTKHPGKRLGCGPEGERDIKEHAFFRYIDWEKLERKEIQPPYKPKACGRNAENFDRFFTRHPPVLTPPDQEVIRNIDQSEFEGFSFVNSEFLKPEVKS
measurement.description: Determination of PKC βII inhibition (Caliper mobility-shift kinase assay, Fluorescein-RFARKGSLRQKNV peptide substrate)
Assay type: biochemical
condition.notes: example compounds at a final concentration of 1.14 μM (±0.15 μM)
readout.kind: inhibition at 1.14 µM (%)

The following compounds have reported results that may help.
Cc1n[nH]c2nc(-c3ccc(O)cc3)cc(C(=O)N3C[C@@H](C)NC[C@@H]3c3ccccc3)c12 44
CCc1n[nH]c2nc(-c3ccc(O)cc3)cc(C(=O)N[C@@H]3CCC(=O)NC3)c12 34

A = Cc1ccc(C(=O)N2CCN(C(=O)c3cc(-c4ccc(O)cc4)nc4[nH]nc(C)c34)CC2)cc1
B = Cc1n[nH]c2nc(-c3c(F)cc(O)cc3F)cc(C(=O)N3CCNCC3(C)C)c12
stdin: Please indicate which entry, A or B , has the lower recorded inhibition at 1.14 µM value. Answer format: the label of the selected item.
stdout: A
